- ASSAY NOTES: simple acute toxicity test, intravenous injection to mouse
- Assay type: in vivo, ddy male mouse
- MEASUREMENT SETUP: mouse, in vivo; 1000 mg/kg intravenous, observed 7 days, 3 mice; read-out: Final death rate (converted)
# maps each entry to its mortality at 168 h

COMPOUND | READOUT UNIT | mortality at 168 h
CC(=O)NC1C(O)CC(O)(C(=O)O)OC1C(O)C(O)CO (centres unmarked) [Magnesium N-acetylneuraminate] | % | 100
CC(=O)N[C@H]1[C@H]([C@H](O)[C@H](O)CO)OC(O)(C(=O)[O-])C[C@@H]1O.[K+] (some centres unmarked) [Potassium N-acetylneuraminate] | % | 100

====

- ASSAY NOTES: acute toxicity test, rat
- Format: in vivo
- MEASUREMENT SETUP: in vivo, iv, male, i.v., 14 days observed, read-out: LD₅₀

MOLECULE | LD50 at 336 h
CC(=O)N[C@H]1[C@H]([C@H](O)[C@H](O)CO)OC(O)(C(=O)[O-])C[C@@H]1O.[Na+] (stereo partly shown) | > 5000 mg/kg

====

- ASSAY NOTES: acute toxicity test, mouse
- Assay type: in vivo
- MEASUREMENT SETUP: in vivo, po, male, p.o., 14 days observed, read-out: LD₅₀
MEASUREMENT NAME: LD50 at 336 h

COMPOUND | EXPERIMENTAL VALUE
CC(=O)N[C@H]1[C@H]([C@H](O)[C@H](O)CO)OC(O)(C(=O)[O-])C[C@@H]1O.[Na+] (stereo partly shown) | > 5000 mg/kg

====

- ASSAY NOTES: acute toxicity test, rat
- Format: in vivo
- MEASUREMENT SETUP: in vivo, po, male, p.o., 14 days observed, read-out: LD₅₀
MEASUREMENT NAME: LD50 at 336 h

COMPOUND | EXPERIMENTAL VALUE
CC(=O)N[C@H]1[C@H]([C@H](O)[C@H](O)CO)OC(O)(C(=O)[O-])C[C@@H]1O.[Na+] (stereo partly shown) | > 5000 mg/kg

====

- ASSAY NOTES: simple acute toxicity test, intravenous injection to mouse
- Assay type: in vivo, ddy male mouse
- MEASUREMENT SETUP: mouse, in vivo; 500 mg/kg intravenous, observed 7 days, 3 mice; read-out: Final death rate (converted)

MOLECULE | READOUT UNIT | mortality at 168 h
CC(=O)NC1C(O)CC(O)(C(=O)O)OC1C(O)C(O)CO (stereo not shown) [Barium N-acetylneuraminate] | % | 100

====

- ASSAY NOTES: acute toxicity test, mouse
- Format: in vivo
- MEASUREMENT SETUP: in vivo, sc, male, s.c., 14 days observed, read-out: LD₅₀
MEASUREMENT NAME: LD50 at 336 h

COMPOUND | MEASUREMENT NAME | EXPERIMENTAL VALUE
CC(=O)N[C@H]1[C@H]([C@H](O)[C@H](O)CO)OC(O)(C(=O)[O-])C[C@@H]1O.[Na+] (stereo partly shown) | LD50 at 336 h | > 5000 mg/kg
